Collected Plant response rating, Lambsquarters values appear next to each entry.
- Tested on: lambsquarters
- measurement.notes: Test C postemergence
- Type: in vivo, Chenopodium album
- recorded.conditions: Postemergence, 62 g ai/ha; scale 0 to 100 (0 no effect, 100 complete control)
quantity.name: Plant response rating, Lambsquarters

In [3]: df
Out[3]:
                                   molecule  observed_value
0  CCOc1cnn(-c2c(C#N)cccc2Oc2ncc(F)cn2)c1 [Compound 89]              65
1  N#Cc1cccc(Oc2ncc(F)cn2)c1-n1cc(Cl)cn1 [Compound 73]              55
2  CCOc1cn(-c2c(Br)cccc2Oc2ncc(Cl)cn2)nn1 [Compound 84]              55
3  Clc1cnc(Oc2cccc(Br)c2-n2cc(Br)nn2)nc1 [Compound 129]              80
4  FC(F)(F)c1cnn(-c2ccccc2Oc2ncc(Cl)cn2)c1 [Compound 16]             100
5  Clc1cnc(Oc2cccc(Br)c2-n2cc(Br)cn2)nc1 [Compound 65]              75
6  CCCOc1cnn(-c2c(C#N)cccc2Oc2ncc(Cl)cn2)c1 [Compound 150]              35
